- System: ACHN
- Protocol text: NCI tumour cell line growth inhibition, 48 h
Active and inactive are the calls of the source. Cut-off read from the data, not from the text of the source: active = GI50 up to about 1.1 µM and inactive = higher. Starred links: 1 amine or outer side, 2 acyl side, 3 side chain; linkers in the order of their positions; H or OH if unused. Positions of bridges follow the written chain, without caps; N, C: chain ends. Non-standard residues stand in square brackets, D forms with d. Residues, ends and D or L forms follow the SMILES beside them. Peptide text beside a SMILES is read from it. * marks the point of attachment. *: point of attachment. X40 = CC[C@H](C)[C@@H](N[*:1])[C@@H](O)CC(=O)[*:2]; NMeY = CN[C@@H](Cc1ccc(O)cc1)C(=O)O; dNMeL = CN[C@H](CC(C)C)C(=O)O; Hiv = CC(C)[C@H](O)C(=O)O; Pyruvoyl = CC(=O)C(=O)*; Boc = CC(C)(C)OC(=O)*
Labels: 1 for active, 0 for inactive

| Compound | Assigned category |
| --- | --- |
| CC(/C(=N/NC(=O)C(N)=O)c1c(Cl)ccc(Cl)c1O)C1(O)C(=O)Nc2ccccc21 (stereo not drawn) | 0 |
| CC[C@H](C)[C@H]1NC(=O)[C@@H](NC(=O)[C@@H](CC(C)C)N(C)C(=O)[C@@H]2CCCN2C(=O)C(C)=O)[C@@H](C)OC(=O)[C@H](Cc2ccc(OC)cc2)N(C)C(=O)[C@@H]2CCCN2C(=O)[C@H](CC(C)C)NC(=O)[C@H](C(C)C)OC(=O)C[C@@H]1O (Pyruvoyl-P[dNMeL]T[X40][Hiv]LP[NMeY](Me); ester 3-C) | 1 |
| O=S(=O)(OI(OI(OS(=O)(=O)C(F)(F)F)c1ccccc1)c1ccccc1)C(F)(F)F | 0 |
| O=Cc1ccc2c(c1)CC1(Cc3ccccc3C1)C2 | 0 |
| COC(=O)C1=C(OC)[C@H]2C#C/C=C\C#C[C@@H]3Nc4c(cc(O)c5c4C(=O)c4ccccc4C5=O)[C@]24O[C@@]34[C@H]1C | 1 |
| CCc1c2c([nH]c(=S)c1C#N)CCC2 | 0 |
| C#CC1(O)CCC2[C@@H]3CCc4cc(Oc5nc(F)nc(-c6c(C)c(C(=O)OCC)n7ccccc67)n5)ccc4C3CC[C@@]21C (stereo partly drawn) | 0 |
| CC1(C)OC[C@@H]([C@H](C=O)OCc2ccccc2)O1 | 0 |
| COc1ccc(CCn2nccc2C)cc1 | 0 |
| CCOP(=O)(O)CC1OC(CO)C(O)C1O (stereo not drawn) | 0 |
| NC1=NCC(c2ccccn2)C1c1ccc(F)cc1 (stereo not drawn) | 0 |
| C[n+]1cccc2ccc(OC(=O)c3ccccc3)cc21 | 0 |
| COc1ccc(Nc2nc3c(N)cc(C(F)(F)F)cc3nc2-c2ccccc2)cc1 | 0 |
| CCCC(=O)OC1CC(n2cc(F)c(=O)[nH]c2=O)OC1COP(=O)(OCC(Cl)(Cl)Cl)OCC(Cl)(Cl)Cl (stereo not drawn) | 1 |
| CCOC(=O)C(C)c1nc2cc3cccnc3c(Cl)c2[nH]c1=O (stereo not drawn) | 0 |
| Clc1ccc(C2ON=C(c3ccccc3)N2C23CC4CC(CC(C4)C2)C3)c(Cl)c1 (stereo not drawn) | 0 |
| O=[N+]([O-])c1nccn1CCCNCCCn1ccnc1[N+](=O)[O-] | 0 |
| COc1ccc(/C=N/NC(=S)Nc2cc(C)ccc2OC)cc1 | 0 |
| CCOC(=O)c1sc2[n+](c1C)C(=O)/C(=C/c1ccc([N+](=O)[O-])cc1)S2 | 0 |
| COC(=O)C(Cc1ccccc1)NC(=O)C(CS)NC(=O)OC(C)(C)C (stereo not drawn) (Boc-Cys-Phe-OMe; configuration not given here) | 0 |
| Cc1ccc(S(=O)(=O)C2CC2(Cl)Cl)cc1 (stereo not drawn) | 0 |
| COc1cc2ccn3c4cc(OC)c(OC)cc4cc3c2cc1OC | 0 |
| CC(C)CC1N=C(OCc2ccccc2)OC1=O (stereo not drawn) | 0 |
| COc1cc(C2S/C(=C/c3ccccc3)C(=O)N2c2cccc(Cl)c2)cc(OC)c1OC (stereo not drawn) | 0 |
| O=C(OCCN1CCCCC1)C(c1ccccc1)C1(O)CCSCC1 (stereo not drawn) | 0 |
| Cc1ccc(Cc2n[nH]c(=O)n2-c2ccccc2)cc1 | 0 |
| FC1C2=C(SC1(F)F)C1CCC2C1 (stereo not drawn) | 0 |
| C/C(=N\NC(=O)c1ccncc1)c1cccc(F)c1 | 0 |
